Molecular target: T1, NativeRPtag(large)_with_Tags_and_Cys (Thermoanaerobacter tengcongensis)
T1 chain: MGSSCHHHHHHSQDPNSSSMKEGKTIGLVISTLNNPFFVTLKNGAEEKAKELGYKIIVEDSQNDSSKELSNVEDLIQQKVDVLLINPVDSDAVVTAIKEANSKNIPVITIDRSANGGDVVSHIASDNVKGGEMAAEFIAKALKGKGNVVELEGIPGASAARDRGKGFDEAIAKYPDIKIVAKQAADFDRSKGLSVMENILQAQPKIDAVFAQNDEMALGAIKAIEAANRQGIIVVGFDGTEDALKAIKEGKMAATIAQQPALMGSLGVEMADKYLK
Test: fluorescence anisotropy; MgCl2 (3M)
observable: pKd
One number for each entry, as −log10 of the molar value.

Fill in reported pKd for this entry: PAELKLITK (modifications not checked) [RPtag(small) Nd8, Cd4]
6.62
